For each entry below, report its log10 of GI50 value.
# Test system: HCC-2998
# assay comment: cells
# condition summary: Homo sapiens, HCC 2998, 48 h
Heads up: the numbers are on a log10 scale; they represent GI50 in nM.

Below, each entry is followed by its recorded log10 of GI50 result.
>  <compound>
COc1cc(/C=C/C(=O)c2ccc(S(=O)(=O)NCCNc3nc(Nc4ccc(F)cc4)nc(N(C)C)n3)cc2)cc(OC)c1OC [24d]

>  <observed property>
log10 of GI50

>  <result number>
3.21

$$$$
>  <compound>
Nc1nc(N)c2c(n1)NC(c1ccc(F)cc1)CC(c1ccc(Nc3nc(NCCO)nc(Nc4ccc(Cl)cc4)n3)cc1)=N2 (stereo not drawn) [33f]

>  <observed property>
log10 of GI50

>  <result number>
3.21

$$$$
>  <compound>
CN(C)c1nc(NCCNS(=O)(=O)c2ccc(C(=O)/C=C/c3ccc(Cl)cc3)cc2)nc(N2CCOCC2)n1 [23e]

>  <observed property>
log10 of GI50

>  <result number>
4.22

$$$$
>  <compound>
CN(C)c1nc(NCCNS(=O)(=O)c2ccc(C3=Nc4c(N)nc(N)nc4NC(c4ccc(C(F)(F)F)cc4)C3)cc2)nc(Nc2ccc(F)cc2)n1 (stereo not drawn) [31g]

>  <observed property>
log10 of GI50

>  <result number>
3.67

$$$$
>  <compound>
COc1cc(/C=C/C(=O)c2cc(OC)c(OC)c(OC)c2)ccc1Oc1nc(NCCO)nc(N2CCOCC2)n1 [20d]

>  <observed property>
log10 of GI50

>  <result number>
3.35

$$$$

// input: 8 compounds below; output: log10 of GI50 for each
1. COc1cc(/C=C/C(=O)c2ccc(C)cc2)ccc1Oc1nc(NCCO)nc(N2CCOCC2)n1 [20b]
2. CN(C)c1nc(NCCNS(=O)(=O)c2ccc(C(=O)/C=C/c3ccc(C(F)(F)F)cc3)cc2)nc(Nc2ccc(F)cc2)n1 [24g]
3. COc1cc(/C=C/C(=O)c2cc(OC)c(OC)c(OC)c2)ccc1Oc1nc(Nc2ccc(F)cc2)nc(N(C)C)n1 [21d]
4. COc1cc(/C=C/C(=O)c2ccc(C)cc2)ccc1Oc1nc(Nc2ccc(F)cc2)nc(N(C)C)n1 [21b]
5. CN(C)c1nc(NCCNS(=O)(=O)c2ccc(C(=O)/C=C/c3ccc(C(F)(F)F)cc3)cc2)nc(N2CCOCC2)n1 [23g]
6. CN(C)c1nc(NCCNS(=O)(=O)c2ccc(C(=O)/C=C/c3ccc(F)cc3)cc2)nc(Nc2ccc(F)cc2)n1 [24f]
7. CN(C)c1nc(NCCNS(=O)(=O)c2ccc(C3=Nc4c(N)nc(N)nc4NC(c4ccc(C(F)(F)F)cc4)C3)cc2)nc(N2CCOCC2)n1 (stereo not drawn) [30g]
8. COc1cc(/C=C/C(=O)c2ccccc2)ccc1Oc1nc(Nc2ccc(F)cc2)nc(N(C)C)n1 [21a]

[3.32, 3.25, 3.31, 4.31, 4.11, 3.26, 4.31, 4.11]

Batch: log10 of GI50 for all items listed.
1. Nc1nc(N)c2c(n1)NC(c1ccc(Cl)cc1)CC(c1ccc(Nc3nc(NCCO)nc(Nc4ccc(Cl)cc4)n3)cc1)=N2 (stereo not drawn) [33e]
2. Cc1ccc(C2CC(c3ccc(Nc4nc(NCCO)nc(Nc5ccc(Cl)cc5)n4)cc3)=Nc3c(N)nc(N)nc3N2)cc1 (stereo not drawn) [33b]

[3.16, 3.19]
